# pIC50 per record follows
Sequence of the target: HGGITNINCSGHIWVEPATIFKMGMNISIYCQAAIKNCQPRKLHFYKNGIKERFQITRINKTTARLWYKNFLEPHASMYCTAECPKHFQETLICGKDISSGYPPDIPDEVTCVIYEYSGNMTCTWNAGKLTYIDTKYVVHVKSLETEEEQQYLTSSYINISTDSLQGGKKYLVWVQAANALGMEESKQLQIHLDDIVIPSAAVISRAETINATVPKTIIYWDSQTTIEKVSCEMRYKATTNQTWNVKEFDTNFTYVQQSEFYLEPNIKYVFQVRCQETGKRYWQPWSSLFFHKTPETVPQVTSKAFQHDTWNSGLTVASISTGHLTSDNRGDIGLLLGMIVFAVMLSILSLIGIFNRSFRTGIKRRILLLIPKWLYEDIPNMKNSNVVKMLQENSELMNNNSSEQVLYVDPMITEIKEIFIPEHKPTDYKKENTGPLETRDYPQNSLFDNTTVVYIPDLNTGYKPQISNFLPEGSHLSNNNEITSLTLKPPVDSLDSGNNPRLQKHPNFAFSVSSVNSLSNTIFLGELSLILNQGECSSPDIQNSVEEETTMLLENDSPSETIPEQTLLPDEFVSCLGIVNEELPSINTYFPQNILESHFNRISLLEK
pIC50: −log10 of the molar value.

CHEM_SMILES | pIC50
COc1ccc(C[C@@H]2NC(=O)[C@@H]3CCC(=O)N[C@@H](CCCCNC(=O)CC[C@@H](C(=O)N[C@@H](CCCCNC(=O)c4ccncc4)C(N)=O)NC(=O)[C@](C)(CC(C)C)NC(=O)[C@H](Cc4ccc5ccccc5c4)NC2=O)C(=O)N[C@@H]([C@@H](C)O)C(=O)N[C@@H](C(C)C)C(=O)N[C@@H](Cc2c[nH]c4ccccc24)C(=O)N[C@@H](CCC(N)=O)C(=O)N3)cc1 | 6.38
CC[C@H](C)[C@@H]1NC(=O)[C@@H]2CCCCNC(=O)CC[C@@H](C(=O)NCC(=O)N[C@H](Cc3cccnc3)C(N)=O)NC(=O)[C@](C)(C(C)C)NC(=O)[C@H](Cc3ccc4ccccc4c3)NC(=O)[C@H](CC3CC3)NC(=O)[C@H](CCC(=O)N2)NC(=O)[C@H](CCC(N)=O)NC(=O)[C@H](Cc2c[nH]c3ccccc23)NC(=O)[C@H](C(C)C)NC1=O | 6.82
